All values here come from PubChem BioAssay (NCATS).

Tested on: CP237
Experimental protocol: qHTS profiling for inhibitors of Plasmodium falciparum proliferation (AID 504749); note: nearly all actives have a fitted effect of over 60% in size
Run conditions: P. falciparum in erythrocytes, SYBR Green DNA, 72 h; series mostly up to 28.7 µM
Records with an inconclusive call do not appear. Calls of active or inactive are those of the source. Calls come from the whole dose curve; as a rule, active = well fitted inhibition curve with a large enough effect; inconclusive = small, poorly fitted or top-dose-only effect; inactive = flat fitted curve, though single readings scatter.
Select the matching outcome among active, inactive

Please review the following examples before continuing.
Molecule	Label value
CN(C)C=Nc1c(I)cc(I)c(CCC(=O)O)c1I	inactive
CC(=O)N[C@@H]1C(O[C@H]2O[C@H](C(=O)O)C(O)[C@H](O)[C@H]2O)[C@H](O)[C@@H](CO)O[C@H]1O[C@@H]1C(C(=O)O)O[C@@H](O[C@H]2[C@H](O)[C@@H](CO)OC(O)[C@@H]2NC(C)=O)[C@H](O)[C@H]1O (stereo partly drawn)	inactive

// return assay outcome for CC(/C=C/C=C(\C)C(=O)O[C@@H]1O[C@H](CO[C@@H]2O[C@H](CO)[C@@H](O)[C@H](O)[C@H]2O)[C@@H](O)[C@H](O)[C@H]1O)=C\C=C\C=C(C)\C=C\C=C(/C)C(=O)O[C@@H]1O[C@H](CO[C@@H]2O[C@H](CO)[C@@H](O)[C@H](O)[C@H]2O)[C@@H](O)[C@H](O)[C@H]1O inactive

Any idea what this test logged for S=C=Nc1ccc(N=C=S)cc1 ? inactive

Which outcome did this test record for the molecule [O]=[Bi][O]C(=O)[O][Bi]=[O] ? inactive

---

Experimental protocol: Drug repurposing screens with cells derived from glioblastoma tumor samples (AID 1345199); note: % is set by controls: 0 for no effect and ±100 for the full control effect; nearly all actives have a fitted effect of over 40% in size
Run conditions: GBM patient neurospheres viability, ATP luminescence, 48 h; at 45.9 µM (top of the series); tumour line B
Procedure: CD133+ cells were isolated from GBM patient biopsies and cultured as neurospheres. Neurospheres from four patients were used to screen the NCATS pharmaceutical collection (NPC) library of approved drugs and bioactive compounds. […] The neurospheres were incubated with drugs for 48 hours in 1536-well format, then assayed with an ATP content cell viability assay. […]
Inconclusive results are not listed.
Observation type: activity, negative = cell killing (%)
Report the value in % with no unit label.

Answered examples (10):
Compound	Observation type	Result number
CC(O)[C@@H]1NC(=O)[C@H](Cc2ccccc2)NC(=O)[C@H](C(C)O)NC(=O)[C@H](CCCCN)NC(=O)[C@H](Cc2c[nH]c3ccccc23)NC(=O)[C@H](Cc2ccccc2)NC(=O)[C@H](Cc2ccccc2)NC(=O)[C@H](CC(N)=O)NC(=O)[C@H](CCCCN)NC(=O)[C@@H](NC(=O)CNC(=O)[C@H](C)N)CSSC[C@@H](C(=O)O)NC(=O)[C@H](CO)NC1=O (some centres undefined)	activity, negative = cell killing	-13.9
CO/N=C(\C(=O)N[C@@H]1C(=O)N2C(C(=O)O)=CCS[C@H]12)c1csc(N)n1	activity, negative = cell killing	-10.9
Cc1ccc(C(C)(C)c2ccc(C)cc2)cc1	activity, negative = cell killing	-5.24
O=C(c1cc2ccccc2o1)N1CCN(Cc2ccccc2)CC1	activity, negative = cell killing	-15.4
CC(C)CN(C[C@@H](O)[C@H](Cc1ccccc1)NC(=O)O[C@@H]1CCOC1)S(=O)(=O)c1ccc(N)cc1	activity, negative = cell killing	-6.03
CCOC(C)OCC	activity, negative = cell killing	-4.71
CC(C)C[C@H](NC(=O)[C@@H](Cc1c[nH]c2ccccc12)NC(=O)[C@H](Cc1ccc(O)cc1)NC(=O)[C@H](CO)NC(=O)[C@H](Cc1c[nH]c2ccccc12)NC(=O)[C@H](Cc1cnc[nH]1)NC(=O)[C@@H]1CCC(=O)N1)C(=O)N[C@@H](CCCN=C(N)N)C(=O)N1CCC[C@@H]1C(=O)NCC(N)=O	activity, negative = cell killing	-6.78
CCN(CC)C(=S)S	activity, negative = cell killing	-1.95
CC1=C[C@H](O)CC(C)(C)[C@H]1/C=C/C(C)=C/C=C/C(C)=C/C=C/C=C(C)/C=C/C=C(C)/C=C/C1=C(C)C[C@@H](O)CC1(C)C	activity, negative = cell killing	-18.9
CC1CC(O)CC(C)(C)C1 (centres undefined)	activity, negative = cell killing	-5.77

For reference, reported activity, negative = cell killing for CC(C)(COP(=O)(O)OP(=O)(O)OC[C@H]1O[C@@H](n2cnc3c(N)ncnc32)[C@H](O)[C@@H]1OP(=O)(O)O)C(O)C(=O)NCCC(=O)NCCS (some centres undefined) stands at -4.74

Lab book: activity, negative = cell killing of CN(C)CCC(O)(c1ccccc1)c1ccccc1Cl (centres undefined) noted as -11.1

Recorded activity, negative = cell killing (compound CO/N=C(\C(=O)N[C@@H]1C(=O)N2C(C(=O)O)=C(CSC(=O)c3ccco3)CS[C@H]12)c1csc(N)n1 ): -9.93

According to the records, this compound CC1C(=O)CC2C3(C)CCC2(C(C)C(=O)O)C(=O)C13 (centres undefined) displays activity, negative = cell killing of -19.4

---

Tested on: CP315
Experimental protocol: qHTS profiling for inhibitors of Plasmodium falciparum proliferation (AID 504749); note: nearly all actives have a fitted effect of over 60% in size
Run conditions: P. falciparum in erythrocytes, SYBR Green DNA, 72 h; series mostly up to 28.7 µM
Records with an inconclusive call do not appear. Activity calls are given as the source filed them. The call rests on the fitted dose curve; in most records, active means well fitted inhibition curve with a large enough effect; inconclusive means small, poorly fitted or top-dose-only effect; inactive means flat fitted curve, though single readings scatter.
Observation type: outcome

In [3]: df
Out[3]:
                                   compound  test_target    result
0      CCOC(=O)c1cc(-c2ccccc2)nc2ccc(C)cc12        CP315  inactive
1  CC1CCC(NC(=O)N(CCCl)N=O)CC1 (stereo not drawn)        CP315  inactive
2                         CCCCCCCCCCCCOCCCN        CP315  inactive

---

Experimental protocol: S16 Schwann cell viability assay (CellTiter-Glo assay) (AID 624031);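 note: native untransfected S16 rat Schwann cells; cellular ATP luminescence as a viability measure; plate controls were DMSO-treated cells for no effect and cell-free wells for full effect; nearly all actives have a fitted effect of over 70% in size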
Run conditions: S16 rat Schwann cells viability, 24 h; series mostly up to 57.5 µM
Results filed as inconclusive are left out. Active and inactive are the calls of the source. The call rests on the fitted dose curve; in most records, active means well fitted cell-killing curve with a large enough effect; inconclusive means small, poorly fitted or top-dose-only effect, or effect the other way; inactive means flat fitted curve, though single readings scatter.
Pick from yes (active), no (inactive) when you respond.

Given CCOC(=O)c1cc(-c2ccccc2)nc2ccc(C)cc12 , state the outcome it received in this test. no

---

Tested on: 7G8
Experimental protocol: qHTS profiling for inhibitors of Plasmodium falciparum proliferation (AID 504749); note: nearly all actives have a fitted effect of over 60% in size
Run conditions: P. falciparum in erythrocytes, SYBR Green DNA, 72 h; series mostly up to 28.7 µM
Results filed as inconclusive are left out. The source made the active and inactive calls. Calls follow the shape of the dose curve; as a rule, active = well fitted inhibition curve with a large enough effect; inconclusive = small, poorly fitted or top-dose-only effect; inactive = flat fitted curve, though single readings scatter.
Hi! Could you answer with just one of these? T (active), F (inactive)

Reference set (2 entries):
Compound	Test target	Label value
CCOC(=O)C1=C(COCCN)NC(C)=C(C(=O)OC)C1c1ccccc1Cl (stereo not drawn)	7G8	T
O=C(O)/C=C/c1ccccc1	7G8	F

Tell me the assay call for OC[C@H]1O[C@@H]2O[C@H]3[C@H](O)[C@@H](O)[C@@H](O[C@H]4[C@H](O)[C@@H](O)[C@@H](O[C@H]5[C@H](O)[C@@H](O)[C@@H](O[C@H]6[C@H](O)[C@@H](O)[C@@H](O[C@H]7[C@H](O)[C@@H](O)[C@@H](O[C@H]1[C@H](O)[C@H]2O)O[C@@H]7CO)O[C@@H]6CO)O[C@@H]5CO)O[C@@H]4CO)O[C@@H]3CO please. F

Could you please tell me the result logged for O=C1c2ccccc2CN2C(=O)c3ccccc3CN12 in this assay? F

Each compound tested received a call. Report the one for O=C(CCCN1CCC(C(=O)c2ccc(F)cc2)CC1)c1ccc(F)cc1 . T

Look up the recorded call for NC(=S)N=Nc1ccc(NN=C(N)N)cc1 in this test. T

Hi, sorry to bother you, what did the test record for Nc1ccc(N=Nc2ccccc2)c(N)n1 ? F

Please share the test call associated with C[C@H]1O[C@@H](O[C@H]2[C@@H](O)C[C@H](O[C@H]3[C@@H](O)C[C@H](O[C@H]4CC[C@@]5(C)[C@H](CC[C@@H]6[C@@H]5C[C@@H](O)[C@]5(C)[C@@H](C7=CC(=O)OC7)CC[C@]65O)C4)O[C@@H]3C)O[C@@H]2C)C[C@H](O)[C@@H]1O . T

---

Experimental protocol: Drug repurposing screens with cells derived from glioblastoma tumor samples (AID 1345199); note: % is set by controls: 0 for no effect and ±100 for the full control effect; nearly all actives have a fitted effect of over 40% in size
Run conditions: GBM patient neurospheres viability, ATP luminescence, 48 h; at 45.9 µM (top of the series); tumour line D
Inconclusive results are not listed.
Labelling field: enter label 1 if recorded activity, negative = cell killing is less than -10%. Enter label 0 if it equals or exceeds that cut-off.

Solved entries:
Compound	Label value
CC[C@H]1NC(=O)[C@@H](NC(=O)c2ncccc2O)[C@@H](C)OC(=O)[C@H](c2ccccc2)NC(=O)[C@@H]2CC(=O)CCN2C(=O)[C@H](Cc2ccccc2)N(C)C(=O)[C@@H]2CCCN2C1=O	label 0
CCC(O)c1ccccc1 (stereo not drawn)	label 0
CCCCCCCCCCCCCCCC(=O)OC[C@H](COP(=O)([O-])OCC[N+](C)(C)C)OC(=O)CCCCCCCCCCCCCCC	label 0
CNC(=O)c1c(I)c(C(=O)NCC(=O)Nc2c(I)c(C(=O)O)c(I)c(C(=O)NCCO)c2I)c(I)c(N(C)C(C)=O)c1I	label 1
Cc1nc(NS(=O)(=O)c2ccc(N)cc2)nc(C)c1Br	label 0
COc1ccc2c(=O)c(C)c(-c3ccccc3)oc2c1CN(C)C	label 1

# strict comparison: is reported activity, negative = cell killing < -10%? input = CO/N=C(\C(=O)N[C@@H]1C(=O)N2C(C(=O)O)=C(C[N+]3(C)CCCC3)CS[C@H]12)c1csc(N)n1 label 0
